Where these numbers come from: patent US20120022045A1

- Test system: HIV-1 integrase mutant virus Y143R
- method: Single cycle infectivity assay in HeLa P4-2 cells, integrase mutant Y143R virus
- Type: cell-based
- assay.conditions: fold shift in IC50 versus wild type IIIB
Reported values of Y143R (shift) for individual entries

>>> endpoint_value("CN(C)C(=O)C(=O)N(C)C12CCC(Cn3c1nc(C(=O)NCc1ccc(F)cc1)c(O)c3=O)C2 (stereo not shown)")
"13 fold"

QUERY: Quick check: Y143R (shift) on HIV-1 integrase mutant virus Y143R, item CN1CCN(C(=O)C(=O)N(C)C23CCC(CC2)Cn2c3nc(C(=O)NCc3ccc(F)cc3)c(O)c2=O)CC1 ?
RESULT: 1 fold

QUERY: Quick check: Y143R (shift) on HIV-1 integrase mutant virus Y143R, item CNC(=O)C(=O)N(C)C12CCC(OC1)C(C)n1c2nc(C(=O)NCc2ccc(F)cc2)c(O)c1=O (single isomer, unassigned) [Example 28A] ?
RESULT: 1 fold

QUERY: Quick check: Y143R (shift) on HIV-1 integrase mutant virus Y143R, item CC1C2CCC(N(C)C(=O)C(=O)N(C)C)(CC2)c2nc(C(=O)NCc3ccc(F)cc3)c(O)c(=O)n21 (single isomer, unassigned) [Example 13A] ?
RESULT: 2 fold

QUERY: Quick check: Y143R (shift) on HIV-1 integrase mutant virus Y143R, item CCN(C(=O)C(=O)N(C)C)C12CCC(Cn3c1nc(C(=O)NCc1ccc(F)cc1)c(O)c3=O)OC2 (single isomer, unassigned) [Example 12B] ?
RESULT: 7 fold

QUERY: Quick check: Y143R (shift) on HIV-1 integrase mutant virus Y143R, item Cc1cc(CNC(=O)c2nc3n(c(=O)c2O)CC2CCC3(N(C)C(=O)C(=O)N(C)C)CO2)ccc1F (single isomer, unassigned) [Example 11B] ?
RESULT: 1 fold

QUERY: Quick check: Y143R (shift) on HIV-1 integrase mutant virus Y143R, item CC1C2CCC(NC(=O)C(=O)N(C)C)(CO2)c2nc(C(=O)NCc3ccc(F)cc3)c(O)c(=O)n21 (single isomer, unassigned) [Example 29C] ?
RESULT: 3 fold

QUERY: Quick check: Y143R (shift) on HIV-1 integrase mutant virus Y143R, item CCC1C2CCC(NC(=O)C(=O)N(C)C)(CO2)c2nc(C(=O)NCc3ccc(F)cc3)c(O)c(=O)n21 (single isomer, unassigned) [Example 26A] ?
RESULT: 2 fold

QUERY: Quick check: Y143R (shift) on HIV-1 integrase mutant virus Y143R, item CN(C(=O)C(=O)N1CCOCC1)C12CCC(Cn3c1nc(C(=O)NCc1ccc(F)cc1)c(O)c3=O)C2 (stereo not shown) ?
RESULT: 2 fold

----------
- Test system: HIV-1 integrase mutant virus Y143R
- method: Single cycle infectivity assay in HeLa P4-2 cells, integrase mutant Y143R virus
- Assay type: cell-based
- assay.conditions: fold shift in IC50 versus wild type IIIB
recorded.endpoint: Y143R (shift) (fold)
Give a bare numeral; the unit fold is implied.

Please review the following examples before continuing.
>>> endpoint_value("CN(C)C(=O)C(=O)N(C)C12CCC(Cn3c1nc(C(=O)NCc1ccc(F)cc1)c(O)c3=O)OC2 (single isomer, unassigned) [Example 10B]")
6
>>> endpoint_value("CN(C)C(=O)C(=O)N(C)C12CCC(Cn3c1nc(C(=O)NCc1ccc(F)cc1)c(O)c3=O)OC2 (single isomer, unassigned) [Example 23A]")
1
>>> endpoint_value("CC1C2CCC(N(C)C(=O)C(=O)N(C)C)(CC2)c2nc(C(=O)NCc3ccc(F)cc3)c(O)c(=O)n21 (single isomer, unassigned) [Example 13B]")
7
>>> endpoint_value("CC1C2CCC(N(C)C(=O)C(=O)N(C)C)(CO2)c2nc(C(=O)NCc3ccc(F)cc3)c(O)c(=O)n21 (single isomer, unassigned) [Example 27B]")
7
>>> endpoint_value("CCN(C(=O)C(=O)N(C)C)C12CCC(OC)(CC1)Cn1c2nc(C(=O)NCc2ccc(F)cc2)c(O)c1=O [Example 16]")
1

Could you now look at the following molecule, please?
QUERY: Give its Y143R (shift) value. Item: CC1(C)OCCn2c1nc(C(=O)NCc1ccc(F)cc1)c(O)c2=O [Compound Z, reference compound]
RESULT: 1

----------
- System: HIV-1 integrase mutant virus Y143R
- method: Single cycle infectivity assay in HeLa P4-2 cells, integrase mutant Y143R virus
- Assay type: cell-based
- assay.conditions: fold shift in IC50 versus wild type IIIB
recorded.endpoint: Y143R (shift) (fold)
Give a bare numeral; the unit fold is implied.

Please review the following examples before continuing.
>>> endpoint_value("CCN(C(=O)C(=O)N(C)C)C12CCC(Cn3c1nc(C(=O)NCc1ccc(F)cc1)c(O)c3=O)OC2 (single isomer, unassigned) [Example 12A]")
2
>>> endpoint_value("CCN(C(=O)C(=O)N(C)C)C12CCC(Cn3c1nc(C(=O)NCc1ccc(F)c(C)c1)c(O)c3=O)OC2 (stereo not shown) [Example 18A]")
2
>>> endpoint_value("Cc1cc(CNC(=O)c2nc3n(c(=O)c2O)CC2CCC3(N(C)C(=O)C(=O)N(C)C)CC2)ccc1F")
1
>>> endpoint_value("CCC12CCC(N(C)C(=O)C(=O)N(C)C)(CO1)c1nc(C(=O)NCc3ccc(F)cc3)c(O)c(=O)n1C2 (single isomer, unassigned) [Example 20A]")
1
>>> endpoint_value("Cc1nnc(C(=O)N(C)C23CCC(Cn4c2nc(C(=O)NCc2ccc(F)cc2)c(O)c4=O)C3)o1 (stereo not shown)")
2
>>> endpoint_value("CC1C2CCC(NC(=O)C(=O)N(C)C)(CO2)c2nc(C(=O)NCc3ccc(F)cc3)c(O)c(=O)n21 (single isomer, unassigned) [Example 29A]")
1

QUERY: Quick check: Y143R (shift) on HIV-1 integrase mutant virus Y143R, item CCC1C2CCC(N(C)C(=O)C(=O)N(C)C)(CO2)c2nc(C(=O)NCc3ccc(F)cc3)c(O)c(=O)n21 (single isomer, unassigned) [Example 25C] ?
RESULT: 3

QUERY: Quick check: Y143R (shift) on HIV-1 integrase mutant virus Y143R, item COC12CCC(N(C)C(=O)C(=O)N(C)C)(CC1)c1nc(C(=O)NCc3ccc(F)cc3)c(O)c(=O)n1C2 ?
RESULT: 1

QUERY: Quick check: Y143R (shift) on HIV-1 integrase mutant virus Y143R, item CCC1C2CCC(NC(=O)C(=O)N(C)C)(CO2)c2nc(C(=O)NCc3ccc(F)cc3)c(O)c(=O)n21 (single isomer, unassigned) [Example 26D] ?
RESULT: 2

QUERY: Quick check: Y143R (shift) on HIV-1 integrase mutant virus Y143R, item COC12CCC(N(C)C(=O)C(=O)N(C)C)(CC1)c1nc(C(=O)NCc3ccc(F)c(C)c3)c(O)c(=O)n1C2 ?
RESULT: 2

QUERY: Quick check: Y143R (shift) on HIV-1 integrase mutant virus Y143R, item CCC1C2CCC(NC(=O)C(=O)N(C)C)(CO2)c2nc(C(=O)NCc3ccc(F)cc3)c(O)c(=O)n21 (single isomer, unassigned) [Example 26B] ?
RESULT: 1

QUERY: Quick check: Y143R (shift) on HIV-1 integrase mutant virus Y143R, item CN(C)C(=O)C(=O)N(C)C12CCC(CC1)Cn1c2nc(C(=O)NCc2ccc(F)cc2)c(O)c1=O [Example 1] ?
RESULT: 2

QUERY: Quick check: Y143R (shift) on HIV-1 integrase mutant virus Y143R, item Cc1nnc(C(=O)NC(C)(C)c2nc(C(=O)NCc3ccc(F)cc3)c(O)c(=O)n2C)o1 [Compound X, raltegravir, reference compound] ?
RESULT: 15

----------
- Test system: HIV-1 integrase mutant virus Y143R
- method: Single cycle infectivity assay in HeLa P4-2 cells, integrase mutant Y143R virus
- Type: cell-based
- assay.conditions: fold shift in IC50 versus wild type IIIB
recorded.endpoint: Y143R (shift) (fold)
Give a bare numeral; the unit fold is implied.

>>> endpoint_value("CN(C)C(=O)C(=O)N(C)C1CCCCn2c1nc(C(=O)NCc1ccc(F)cc1)c(O)c2=O (stereo not drawn) [Compound Y, reference compound]")
1
>>> endpoint_value("CC1C2CCC(N(C)C(=O)C(=O)N(C)C)(CO2)c2nc(C(=O)NCc3ccc(F)cc3)c(O)c(=O)n21 (single isomer, unassigned) [Example 27A]")
1

QUERY: Give its Y143R (shift) value. Item: CN(C)C(=O)C(=O)N(C)C12CCC(O)(CC1)Cn1c2nc(C(=O)NCc2ccc(F)cc2)c(O)c1=O
RESULT: 1

----------
Reported values of IC50 for individual entries
- measured.target: HIV-1 integrase (Human immunodeficiency virus type 1 group M subtype B, UniProt P04585)
- Construct: strand transfer activity of HIV-1 integrase
- method: HIV integrase assay: strand transfer catalyzed by recombinant integrase
- assay.conditions: strand transfer activity
Give a bare numeral; the unit nM is implied.

Please review the following examples before continuing.
>>> endpoint_value("CN(C)C(=O)C(=O)N(C)C12CCC(Cn3c1nc(C(=O)NCc1ccc(F)cc1)c(O)c3=O)OC2 (single isomer, unassigned) [Example 10B]")
14
>>> endpoint_value("CC1C2CCC(N(C)C(=O)C(=O)N(C)C)(CC2)c2nc(C(=O)NCc3ccc(F)cc3)c(O)c(=O)n21 (single isomer, unassigned) [Example 13B]")
13
>>> endpoint_value("CC1C2CCC(N(C)C(=O)C(=O)N(C)C)(CC2)c2nc(C(=O)NCc3ccc(F)cc3)c(O)c(=O)n21 (single isomer, unassigned) [Example 13A]")
13

Could you now look at the following molecule, please?
QUERY: Give its IC50 value. Item: Cc1cc(CNC(=O)c2nc3n(c(=O)c2O)CC2CCC3(N(C)C(=O)C(=O)N(C)C)CO2)ccc1F (single isomer, unassigned) [Example 11B]
RESULT: 14
